// provenance: patent US20170174733A1

# Assayed System: T1, VEGF109 (UniProt P15692 214-315, biotinylated where loaded on streptavidin tips)
# T1 construct: range 8-109; also called VEGF8-109; biotinylated VEGF109
# T1 sequence: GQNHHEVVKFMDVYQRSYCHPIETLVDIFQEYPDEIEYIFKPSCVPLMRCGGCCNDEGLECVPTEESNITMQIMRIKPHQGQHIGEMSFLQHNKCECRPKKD
# Assay Details: phage ELISA, 5 ug/ml VEGF coated on 384-well Maxisorp, OD 450 nm
Experimental Readout: EC50 (read off the curve)

Which EC50 (read off the curve) value is on record for phage-displayed chagasin VEGF variant 3-65-F5 (designed binder, not shown: phage coat protein g3 (p3)) MADPNRFRGKDLGSLEMSHKVTKAHNGATLTVAVGELVEIQLPSNYRDSGFAWYFEGGTKESPNESMFTVENKYFPVRAGQANEGAGGTEHFHVTVKAAGTHAVNLTYMSPVLGPRFWLERFTVYLKANGGSGGSGGS ?
~0.004 OD 268 nM

Which EC50 (read off the curve) value is on record for phage-displayed chagasin VEGF variant 5-44-D8 (designed binder, not shown: phage coat protein g3 (p3)) MADPNRFRGKDLGSLEMSHKVTKAHNGATLTVAVGELVEIQLPSNLRSMGFAWYFEGGTKESPNESMFTVENKYFPAGPSAVPLGAGGTEHFHVTVKAAGTHAVNLTYMAPWRGPANVIERFTVYLKANGGSGGSGGS ?
~0.003 OD 268 nM
